The values you see were collected from patent US20120165306A1.

biological target: Cdk9/cyclinT1 (Homo sapiens); assay: Cdk9/cyclinT1 kinase assay (IMAP or Alpha Screen protocol)
value-type: IC50 (nM)

chemical-string: CCS(=O)(=O)N1CCC[C@H](C(=O)Nc2cc(-c3cncc(NCC4CCOCC4)n3)c(C(F)(F)F)cn2)C1
experimental-system: Cdk9/cyclinT1 (Homo sapiens)
value-type: IC50
measured-number: 100
//
chemical-string: O=C(Nc1cc(-c2cncc(NCC3CCOCC3)n2)c(C(F)(F)F)cn1)[C@@H]1CCCNC1
experimental-system: Cdk9/cyclinT1 (Homo sapiens)
value-type: IC50
measured-number: 130

###

target: Cdk9/cyclinT1 (Homo sapiens, UniProt P50750); assay: Cdk9/cyclinT1 kinase assay (IMAP or Alpha Screen protocol)
Sequence (P50750 whole entry): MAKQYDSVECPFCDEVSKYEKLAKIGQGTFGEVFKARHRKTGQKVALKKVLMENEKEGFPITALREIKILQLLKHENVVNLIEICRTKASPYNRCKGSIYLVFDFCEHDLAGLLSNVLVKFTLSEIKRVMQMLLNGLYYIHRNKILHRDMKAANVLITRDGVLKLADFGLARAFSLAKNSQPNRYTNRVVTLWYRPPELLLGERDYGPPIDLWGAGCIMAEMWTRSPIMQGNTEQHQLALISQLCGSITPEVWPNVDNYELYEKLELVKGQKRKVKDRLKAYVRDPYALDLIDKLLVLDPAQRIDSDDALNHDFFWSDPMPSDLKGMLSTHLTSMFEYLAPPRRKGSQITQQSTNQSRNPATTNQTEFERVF
Sequence (O60563 whole entry partner): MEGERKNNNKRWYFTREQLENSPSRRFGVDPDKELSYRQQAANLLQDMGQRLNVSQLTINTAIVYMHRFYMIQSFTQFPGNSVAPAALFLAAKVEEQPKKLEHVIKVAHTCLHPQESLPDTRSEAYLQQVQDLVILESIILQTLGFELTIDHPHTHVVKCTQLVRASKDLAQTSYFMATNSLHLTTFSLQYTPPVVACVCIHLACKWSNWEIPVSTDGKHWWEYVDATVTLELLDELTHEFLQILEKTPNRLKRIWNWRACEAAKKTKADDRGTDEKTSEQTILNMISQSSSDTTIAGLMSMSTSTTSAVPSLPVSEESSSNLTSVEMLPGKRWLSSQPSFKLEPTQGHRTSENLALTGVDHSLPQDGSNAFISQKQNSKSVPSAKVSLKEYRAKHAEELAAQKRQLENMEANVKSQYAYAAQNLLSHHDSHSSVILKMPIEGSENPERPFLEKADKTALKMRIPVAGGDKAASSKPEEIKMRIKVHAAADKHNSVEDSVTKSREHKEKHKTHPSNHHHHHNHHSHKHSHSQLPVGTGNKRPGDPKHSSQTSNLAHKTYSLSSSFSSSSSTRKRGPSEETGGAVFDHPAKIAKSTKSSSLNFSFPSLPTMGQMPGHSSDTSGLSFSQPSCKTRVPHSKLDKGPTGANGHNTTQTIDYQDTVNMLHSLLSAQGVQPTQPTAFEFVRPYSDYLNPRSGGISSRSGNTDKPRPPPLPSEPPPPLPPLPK
value-type: IC50 (nM)

Completed entries (count: 5):
compound: O=C(Nc1cc(-c2cncc(NCC3CCCCO3)n2)c(Cl)cn1)[C@@H]1CCCNC1 (stereo partly drawn)
value-units: nM
IC50: 11
//
compound: N[C@H]1CC[C@@H](C(=O)Nc2cc(-c3cncc(NCC4CCOCC4)n3)c(C(F)(F)F)cn2)C1
value-units: nM
IC50: 40
//
compound: O=C(Nc1cc(-c2cncc(NC[C@@H]3CCCO3)n2)c(Cl)cn1)[C@@H]1CCCNC1
value-units: nM
IC50: 15
//
compound: O=C(Nc1cc(-c2cncc(NC3CCOCC3)n2)c(Cl)cn1)[C@@H]1CCCNC1
value-units: nM
IC50: 48
//
compound: N[C@@H]1CC[C@H](C(=O)Nc2cc(-c3cncc(NCC4CCOCC4)n3)c(Cl)cn2)C1
value-units: nM
IC50: 25

I: CC(C)(C)OC(=O)N1CCC[C@@H](C(=O)Nc2cc(-c3cncc(NCC4CCOCC4)n3)c(Cl)cn2)C1
II: Cc1cnc(NC(=O)C(C)C)cc1-c1cncc(NCC2CCOCC2)n1
III: CCN1CCC[C@@H](C(=O)Nc2cc(-c3cncc(NCC4CCOCC4)n3)c(Cl)cn2)C1
Problem: Hey, quick one: sort these by IC50, largest value first please. Sort and list the labels as requested.
Solution: III, II, I
